- target or test system: T1, recombinant human VEGF165 (human, UniProt P15692-4 27-191)
- T1 construct: also called hVEGF165; rhVEGF165
- T1 sequence (P15692 other isoform, or with tags, fused parts or gaps limits assumed): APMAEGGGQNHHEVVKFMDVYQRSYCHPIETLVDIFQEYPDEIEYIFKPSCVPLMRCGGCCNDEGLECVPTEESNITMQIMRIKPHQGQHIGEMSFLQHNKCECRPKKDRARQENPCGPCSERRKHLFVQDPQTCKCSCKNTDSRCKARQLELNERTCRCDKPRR
- measurement notes: hVEGF165/hVEGFR2-Fc competition AlphaScreen
pIC50: −log10 of the molar value.
Could you label it 1 if measured pIC50 is 10 or higher, and -1 otherwise?

[[record]]
binder = "VEGFBII23A06 (VHH, also called 23A6; VEGFBII23A6) VHH: EVQLVESGGGLVQPGDSLKLSCAFSGRTFSSYSMGWFRQAQGKEREFVVAISSGGFIYDAVSLEGRFTISRDNTKNTVYLQTPSLKPEDTAVYYCAASRAYGSSRLRLADTYDYWGQGTQVTVSS"
answer_label = -1


Entry VEGFBII021 (VHH, biparatopic bivalent VHH in one chain; also called VEGFBII23B04-40GS-5B05) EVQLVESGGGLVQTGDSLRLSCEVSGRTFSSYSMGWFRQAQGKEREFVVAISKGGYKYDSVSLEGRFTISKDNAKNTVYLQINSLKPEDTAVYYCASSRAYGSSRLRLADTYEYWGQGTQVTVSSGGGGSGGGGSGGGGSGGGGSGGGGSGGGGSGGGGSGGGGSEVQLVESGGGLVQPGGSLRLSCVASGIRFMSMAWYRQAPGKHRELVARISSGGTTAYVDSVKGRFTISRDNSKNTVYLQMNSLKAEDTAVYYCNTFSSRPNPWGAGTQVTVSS : is its pIC50 no less than 10? 1

Entry VEGFBII024 (VHH, biparatopic bivalent VHH in one chain; also called VEGFBII23B04-40GS-86H09; VEGFBI024) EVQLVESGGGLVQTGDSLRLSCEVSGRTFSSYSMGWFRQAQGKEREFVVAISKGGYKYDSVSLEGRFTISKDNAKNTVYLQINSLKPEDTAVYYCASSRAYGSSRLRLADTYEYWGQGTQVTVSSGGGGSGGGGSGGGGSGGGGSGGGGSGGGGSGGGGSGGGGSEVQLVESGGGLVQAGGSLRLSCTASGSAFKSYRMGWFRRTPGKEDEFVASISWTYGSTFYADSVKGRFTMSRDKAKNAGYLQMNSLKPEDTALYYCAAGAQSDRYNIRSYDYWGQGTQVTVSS : is its pIC50 no less than 10? 1

Provenance of the data: patent US20170247475A1
